target-entity: T1, Rhesus CD137-Fc tagged protein (rhesus, UniProt H9Z8K9 24-186)
T1 construct: extracellular domain; The Octet paragraph gives no catalogue number; also called rhCD137-Fc
method-description: BLI (Octet RED384), CD137-Fc on Protein G sensor, 1:1 model
The binders listed here are annotated with their koff.

>  <binder>
003BB172-E01-6 (VHH, Human VH single domain antibody, monovalent; also called CD137B) VHH: EVQLVESGGGLVQPGGSLRLSCAASGFTFSNYGMHWVRQAPGKGLEWVAVISNDGNTKTYADSVKGRFTISRDNSKNMLYLQMNSLRTEDTAVYYCAQDETTTVTASYYFDYWGQGTLVTVSS

>  <units-symbol>
s⁻¹

>  <koff>
0.00287

$$$$
>  <binder>
003BB172-E01-13 (VHH, Human VH single domain antibody, monovalent; also called CD137D; 172E1-13) VHH: EVQLVESGGGVVQPGGSLRLSCAASGFTFSNYGMHWVRQAPGKGLEWVAVISNDGNTKTYADSVKGRFTISRDNSKNTLYLQMNSLRAEDTAVYYCAQDETTTVTASYYFDYWGQGTLVTVSS

>  <units-symbol>
s⁻¹

>  <koff>
0.00253

$$$$
>  <binder>
003BB172-E01-12 (VHH, Human VH single domain antibody, monovalent) VHH: EVQLVESGGGLVQPGRSLRLSCAASGFTFSNYGMHWVRQAPGKGLEWVAVISNDGNTKTYADSVKGRFTISRDNSKNTLYLQMNSLRAEDTAVYYCAQDETTTVTASYYFDYWGQGTLVTVSS

>  <units-symbol>
s⁻¹

>  <koff>
0.0023

$$$$
>  <binder>
003BB172-E01-2 (VHH, Human VH single domain antibody, monovalent) VHH: EVQLVESGGGLVQPGGSLRLSCAASGFTFSNYGMHWVRQAPGKRLEWVAVISNDGNTKTYADSVKGRFTISRDNSKNTLYLQMTSLRTEDTAVYYCAQDETTTVTASYYFDYWGQGTLVTVSS

>  <units-symbol>
s⁻¹

>  <koff>
0.00159

$$$$
